Reported inhibition values are given for each entry in this list.
target: Serine/threonine-protein kinase pim-2 (Homo sapiens) (UniProt Q9P1W9); settings: at 0.1 µM;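 note: reported value is the mean percent inhibition of PIM2, measured in the GSK PKIS kinase inhibitor set screen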
Sequence (Q9P1W9 whole entry, looked up): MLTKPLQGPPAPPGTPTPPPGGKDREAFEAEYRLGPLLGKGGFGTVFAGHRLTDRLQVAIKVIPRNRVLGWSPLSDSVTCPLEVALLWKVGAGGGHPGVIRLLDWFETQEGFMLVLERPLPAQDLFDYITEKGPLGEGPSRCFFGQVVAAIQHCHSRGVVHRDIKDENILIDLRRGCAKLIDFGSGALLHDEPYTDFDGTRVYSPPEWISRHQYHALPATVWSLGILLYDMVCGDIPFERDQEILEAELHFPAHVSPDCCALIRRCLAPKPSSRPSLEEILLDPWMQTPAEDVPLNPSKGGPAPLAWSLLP
Quantity measured: inhibition (%)

Compound	Quantity measured	Unit	Data value
Cn1c(-c2nonc2N)nc2cnccc21	inhibition	%	-0.31
CNC(=O)c1ncccc1Nc1nc(Nc2cc3c(cc2OC)CCCN3C(=O)CN(C)C)nc2[nH]ccc12	inhibition	%	1.04
NS(=O)(=O)c1ccc(N/N=C2\C(=O)Nc3cccc(CCc4ccncc4)c32)cc1	inhibition	%	0.11
c1ccc(-c2n[nH]cc2-c2ccnc(-c3ccc(OCCn4ccnc4)cc3)c2)nc1	inhibition	%	0.56
CC1=C(C(=O)Nc2ccc3[nH]nc(C)c3c2)C(c2ccc(C(F)(F)F)cc2)CC(=O)N1 (stereo not given)	inhibition	%	0
COc1ccccc1-c1cc(/C=C2\C(=O)Nc3ncc(Br)cc32)cc(Br)c1O	inhibition	%	0.1
OCCCNc1nccc(-c2c(-c3ccc(F)cc3)nn3cc(C(F)(F)F)ccc23)n1	inhibition	%	0.32
COc1c(C(N)=O)cc(-c2ccc(Cl)cc2)cc1-c1ccc(S(N)(=O)=O)cc1	inhibition	%	-0.64
CCN1CCC(C(=O)Nc2n[nH]c3nnc(-c4cccc(F)c4F)cc23)CC1	inhibition	%	0.04
CN(c1ccc(NC(=O)NCCN2CCOCC2)cc1)c1ccnc(Nc2ccc(CS(C)(=O)=O)cc2)n1	inhibition	%	0.04

====

Each entry below lists one item and its recorded inhibition value.
biological target: Calcium/calmodulin-dependent protein kinase type II subunit alpha (Homo sapiens); settings: at 0.1 µM;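 note: reported values are averages (mean inhibition of CAMK2A)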

Smiles input	Unit	inhibition
CN(c1ccc(NC(=O)NCCN2CCOCC2)cc1)c1ccnc(Nc2ccc(CS(C)(=O)=O)cc2)n1	%	1.72
Cc1c2ccc(N(C)c3ccnc(Nc4cccc(S(N)(=O)=O)c4)n3)cc2nn1C	%	3.49
COC(=O)Nc1nc2ccc(Oc3ccc(NC(=O)Nc4cc(C(F)(F)F)ccc4F)cc3)cc2s1	%	-0.9
NS(=O)(=O)c1ccc(N/N=C2\C(=O)Nc3cccc(CCc4ccncc4)c32)cc1	%	-1.5
COc1ccc2ncn(-c3cc(O[C@H](C)c4ccccc4C(F)(F)F)c(C(N)=O)s3)c2c1	%	-1.63
O=C(Nc1n[nH]c2nnc(-c3cccnc3)cc12)C1CC1	%	-1.44

====

tested on: Epidermal growth factor receptor (Homo sapiens), P00533 [L858R]; conditions: at 0.1 µM
Sequence (P00533 whole entry L858R): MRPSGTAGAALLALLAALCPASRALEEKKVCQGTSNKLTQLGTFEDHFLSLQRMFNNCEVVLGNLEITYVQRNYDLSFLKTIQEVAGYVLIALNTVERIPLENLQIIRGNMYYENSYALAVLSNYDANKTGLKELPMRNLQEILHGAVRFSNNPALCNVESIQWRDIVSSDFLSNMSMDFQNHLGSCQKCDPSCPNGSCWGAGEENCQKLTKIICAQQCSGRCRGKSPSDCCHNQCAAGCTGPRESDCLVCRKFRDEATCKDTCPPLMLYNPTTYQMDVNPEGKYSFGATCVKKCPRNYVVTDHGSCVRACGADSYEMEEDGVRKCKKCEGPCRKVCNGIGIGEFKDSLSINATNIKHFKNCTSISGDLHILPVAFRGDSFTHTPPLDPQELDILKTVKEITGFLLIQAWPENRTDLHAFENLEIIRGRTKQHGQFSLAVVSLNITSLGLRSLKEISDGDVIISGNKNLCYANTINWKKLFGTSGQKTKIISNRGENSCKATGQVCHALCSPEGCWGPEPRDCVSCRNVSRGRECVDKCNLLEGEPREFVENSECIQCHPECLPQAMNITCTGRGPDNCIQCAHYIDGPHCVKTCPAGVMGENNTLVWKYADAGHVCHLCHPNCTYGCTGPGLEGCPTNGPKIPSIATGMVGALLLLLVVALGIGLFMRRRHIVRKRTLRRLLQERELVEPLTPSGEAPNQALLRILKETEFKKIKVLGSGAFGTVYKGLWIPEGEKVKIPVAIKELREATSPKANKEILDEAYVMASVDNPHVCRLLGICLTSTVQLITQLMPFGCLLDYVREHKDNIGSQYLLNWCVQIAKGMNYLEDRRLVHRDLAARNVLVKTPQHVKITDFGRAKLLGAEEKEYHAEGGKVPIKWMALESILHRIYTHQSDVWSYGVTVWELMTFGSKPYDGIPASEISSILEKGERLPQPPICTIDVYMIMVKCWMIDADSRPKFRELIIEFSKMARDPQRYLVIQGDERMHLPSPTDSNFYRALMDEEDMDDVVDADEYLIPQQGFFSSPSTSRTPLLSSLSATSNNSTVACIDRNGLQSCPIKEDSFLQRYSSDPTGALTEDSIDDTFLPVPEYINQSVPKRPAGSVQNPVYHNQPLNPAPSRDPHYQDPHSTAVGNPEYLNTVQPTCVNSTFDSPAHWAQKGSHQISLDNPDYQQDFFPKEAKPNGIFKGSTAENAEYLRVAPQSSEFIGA
Quantity measured: inhibition (%)

Compound	Data value
Fc1cccc(COc2ccc(Nc3ncncc3C#Cc3ccccc3)cc2Cl)c1	3.93
CC(C)c1ccc(-c2cc(-c3c[nH]nc3-c3ccccn3)ccn2)cc1	1.78
FC(F)(F)CNc1nccc(-c2cnn3ncccc23)n1	2.83
COc1ccc(-c2nn3ncccc3c2-c2ccnc(Nc3ccc(F)c(F)c3)n2)cc1	3.72
Fc1ccc(Nc2nccc(-c3c(-c4ccc(C(F)(F)F)cc4)nn4ncccc34)n2)cc1F	4.49
CC1=C(C(=O)Nc2ccc3[nH]nc(C)c3c2)C(c2ccc(C(F)(F)F)cc2)CC(=O)N1 (stereo not drawn)	4.19
N#Cc1ccc2c(-c3ccnc(NC4CC4)n3)c(-c3ccc(F)cc3)nn2c1	5.89
O=C(O[C@H]1CN[C@H](C#Cc2cc3ncnc(Nc4ccc5c(ccn5Cc5cc(F)ccc5F)c4)c3s2)C1)N1CCOCC1	11.2
CCCNc1cccc(-n2ncc3c(N/N=C/c4ccncc4)ncnc32)c1	14
CC1=C(C(=O)Nc2ccc3[nH]ncc3c2)C(c2ccc(F)cc2)N=C(c2ccc(C(F)(F)F)nc2)N1 (stereo not drawn)	4.85
CCS(=O)(=O)c1ccc(OC)c(Nc2ncc(-c3cccc(F)c3)o2)c1	9.54
CCS(=O)(=O)c1ccc(OC)c(Nc2ncc(-c3cccc(C(C)=O)c3)o2)c1	5.11
CCN1CCC(C(=O)Nc2n[nH]c3nnc(-c4cccc(F)c4F)cc23)CC1	-0.75
CS(=O)(=O)Nc1ccc(-c2ccc3c(NC(=O)C4CC4)n[nH]c3c2)cc1	2.52
COc1cccc(Nc2nccc(-c3cnn4ncccc34)n2)c1	2.1
OCCCNc1nccc(-c2c(-c3ccc(F)cc3)nn3cc(C(F)(F)F)ccc23)n1	5.62
N#Cc1cccc(Nc2ncc(-c3ccccc3)o2)c1	2.09
c1cnn2ncc(-c3ccnc(NCCCN4CCOCC4)n3)c2c1	3.41
NS(=O)(=O)c1cccc(N/C=C2\C(=O)Nc3ccccc32)c1	2.03
CC1(C)CC(n2cnc(-c3ccc(F)cc3)c2-c2ccnc(N)n2)CC(C)(C)N1	-1.07
CS(=O)(=O)CCNCc1ccc(-c2ccc3ncnc(Nc4ccc(OCc5cccc(C(F)(F)F)c5)cc4)c3c2)o1	6.17
NC(=O)c1ccc2c(-c3ccnc(NCCCO)n3)c(-c3ccc(F)cc3)nn2c1	10.1
CNC(=O)c1cncc(/C=C/c2ccccc2C)c1	4.66
CS(=O)(=O)CCNCc1ccc(-c2ccc3ncnc(Nc4ccc(OCc5ccccc5)cc4)c3c2)o1	31.4
CNC(=O)c1sc(-n2cnc3cc(OC)c(OC)cc32)cc1OCc1ccccc1C(F)(F)F	0.74
CN(C)CCNC(=O)Nc1ccc(N(C)c2ccnc(Nc3ccc(CS(C)(=O)=O)cc3)n2)cc1	3.58
COc1ccc(Nc2ncc(-c3ccccc3)o2)cc1OC	-1.38
CNC(=O)c1ncccc1Nc1nc(Nc2cc3c(cc2OC)CCCN3C(=O)CN(C)C)nc2[nH]ccc12	4.57
Cc1cc(O)cc(C)c1/C=C/c1cncc(C(=O)OC(C)(C)C)c1	3.7
NS(=O)(=O)c1ccc(N/N=C2\C(=O)Nc3ccc(C(=O)NCc4ccncc4)cc32)cc1	6.1
COc1cccc(-n2ncc3c(N/N=C/c4ccc(C(=O)NCCN(C)C)cc4)ncnc32)c1	63.6
COc1cc(N2CCN(C(C)C)CC2)ccc1Nc1nc(Nc2cccc3ncccc23)c2cc[nH]c2n1	-1.25
O=C(O[C@H]1CN[C@H](C#Cc2cc3ncnc(Nc4ccc5c(cnn5Cc5ccccc5)c4)c3s2)C1)N1CCOCC1	14.2
